Values were extracted from the supplement of paper PMC4862054.

- Tested on: MDA-MB-468
- experiment: normalised viability (% of control), CellTiter-Blue; higher = more viable cells (100 = DMSO, 0 = benzethonium chloride kill control)
- assay conditions: incubation time: 72 h
reported metric: normalised viability (%)
I only need the number, in %, no unit after it.

Example entries begin here.
CC(C)(C)NC(=O)[C@H]1CC[C@H]2[C@@H]3CC[C@H]4NC(=O)C=C[C@]4(C)[C@H]3CC[C@]12C [Finasteride] (1 nM)
105
CCN(CC)CCCC(C)Nc1ccnc2cc(Cl)ccc12 (stereo unspecified) [Chloroquine] (0.099 nM)
108
C=CCN(/C=C1/C(=O)O[C@H](COC)[C@@]2(C)C1=C(O)C(=O)C1=C2[C@H](OC(C)=O)C[C@]2(C)C(=O)CC[C@@H]12)CC=C [PX-866] (1 nM)
96.6
CC(C)C[C@H](NC(=O)[C@@H](COC(C)(C)C)NC(=O)[C@H](Cc1ccc(O)cc1)NC(=O)[C@H](CO)NC(=O)[C@H](Cc1c[nH]c2ccccc12)NC(=O)[C@H](Cc1cnc[nH]1)NC(=O)[C@@H]1CCC(=O)N1)C(=O)N[C@@H](CCCNC(=N)N)C(=O)N1CCC[C@H]1C(=O)NNC(N)=O [Goserelin] (1 nM)
91.7
CC(=O)[C@]1(O)Cc2c(O)c3c(c(O)c2[C@@H](O[C@H]2C[C@H](N)[C@H](O)[C@H](C)O2)C1)C(=O)c1ccccc1C3=O [Idarubicin] (0.1 nM)
130

Now take the following compound into account.
What normalised viability value was documented for this compound, CO[C@@]12[C@H](COC(N)=O)C3=C(C(=O)C(C)=C(N)C3=O)N1C[C@@H]1N[C@@H]12 [Mitomycin C] (1 nM) ?
94.3

====

- Tested on: HCC1143
- experiment: normalised response (% of control), CellTox Green; higher = less cell death (100 = DMSO, 0 = benzethonium chloride kill control)
- assay conditions: incubation time: 72 h
reported metric: normalised response (%)
I only need the number, in %, no unit after it.

Example entries begin here.
CO[C@@]12[C@H](COC(N)=O)C3=C(C(=O)C(C)=C(N)C3=O)N1C[C@@H]1N[C@@H]12 [Mitomycin C] (100 nM)
90
O=C(CCCCCCC(=O)Nc1ccccc1)NO [Vorinostat] (10000 nM)
42.1
CC(C)(C)NC(=O)[C@H]1CC[C@H]2[C@@H]3CC[C@H]4NC(=O)C=C[C@]4(C)[C@H]3CC[C@]12C [Finasteride] (100 nM)
93.1
CC(=O)[C@]1(O)Cc2c(O)c3c(c(O)c2[C@@H](O[C@H]2C[C@H](N)[C@H](O)[C@H](C)O2)C1)C(=O)c1ccccc1C3=O [Idarubicin] (100 nM)
102
CC(=O)[C@]1(O)Cc2c(O)c3c(c(O)c2[C@@H](O[C@H]2C[C@H](N)[C@H](O)[C@H](C)O2)C1)C(=O)c1ccccc1C3=O [Idarubicin] (10 nM)
114
CCNC(=O)c1noc(-c2cc(C(C)C)c(O)cc2O)c1-c1ccc(CN2CCOCC2)cc1 [NVP-AUY922] (100 nM)
87.9
Cc1cn(-c2cc(NC(=O)c3ccc(C)c(Nc4nccc(-c5cccnc5)n4)c3)cc(C(F)(F)F)c2)cn1 [Nilotinib] (1000 nM)
91.8
C=CCn1c(=O)c2cnc(Nc3ccc(N4CCN(C)CC4)cc3)nc2n1-c1cccc(C(C)(C)O)n1 [MK1775] (100 nM)
98.6

What normalised response value was documented for this molecule, CO[C@@]12[C@H](COC(N)=O)C3=C(C(=O)C(C)=C(N)C3=O)N1C[C@@H]1N[C@@H]12 [Mitomycin C] (1000 nM) ?
104

What normalised response value was documented for this molecule, CN(Cc1cnc2nc(N)nc(N)c2n1)c1ccc(C(=O)N[C@@H](CCC(=O)O)C(=O)O)cc1 [Methotrexate] (500 nM) ?
114

What normalised response value was documented for this molecule, Nc1ccn([C@@H]2O[C@H](CO)[C@@H](O)C2(F)F)c(=O)n1 [Gemcitabine] (1000 nM) ?
103

What normalised response value was documented for this molecule, COc1ccc(S(=O)(=O)Nc2cccnc2Nc2ccc(O)cc2)cc1 [ABT-751] (1000 nM) ?
98.9

What normalised response value was documented for this molecule, O=C(O)CNC(=O)c1c(O)c2ccccc2n(Cc2ccccc2)c1=O [IOX-2] (5000 nM) ?
97.1

What normalised response value was documented for this molecule, CC(C)C[C@H](NC(=O)[C@@H](COC(C)(C)C)NC(=O)[C@H](Cc1ccc(O)cc1)NC(=O)[C@H](CO)NC(=O)[C@H](Cc1c[nH]c2ccccc12)NC(=O)[C@H](Cc1cnc[nH]1)NC(=O)[C@@H]1CCC(=O)N1)C(=O)N[C@@H](CCCNC(=N)N)C(=O)N1CCC[C@H]1C(=O)NNC(N)=O [Goserelin] (1000 nM) ?
112

What normalised response value was documented for this molecule, CC1(COc2ccc3c(c2)ncn3-c2ccc3cccc(N4CCC(N)CC4)c3n2)COC1 [Crenolanib] (10000 nM) ?
55.7
